Recorded Erosion, one value per entry.
# test.details: Determination of ulcer index
# condition.description: female

Here are 3 compounds together with their reported answers.
{"compound": "CCOc1cc2c(cc1OCC)C1CC(=O)C(CCC#N)CN1CC2 (centres unmarked)", "Erosion": "4/10"}
{"compound": "COc1ccc2c(c1)c(CC(=O)O)c(C)n2C(=O)c1ccc(Cl)cc1 [Indomethacine, reference compound]", "Erosion": "1/10"}
{"compound": "COc1cc2c(cc1OC)C1CC(=O)C(CCC#N)CN1CC2 (centres unmarked)", "Erosion": "4/10"}

Consider O=C(O)c1ccccc1O [Na-salicylate, reference compound] . Its measured Erosion is 3/10

Notebook: N#CCCC1CN2CCc3cc4c(cc3C2CC1=O)OCO4 (centres unmarked) , Erosion read as 0/10

---

# test.details: Toxicity tests performed with compound SC-118
# Format: in vivo
# condition.description: rat, in vivo, CFY rats, female; read-out: LD50, f
readout.type: LD50 (mg/kg)
Your answer should be a plain number; it is taken to be in mg/kg.

Entry N#CCCC1CN2CCc3cc4c(cc3C2CC1=O)OCO4 (stereo not shown) [SC-118] ; LD50 = 1400

---

# test.details: Toxicity tests performed with compound SC-118
# Type: in vivo
# condition.description: rat, in vivo, CFY rats, male; read-out: LD50, m
readout.type: LD50 (mg/kg)
Write the value in mg/kg as a bare number.

Kindly note the recorded LD50 for N#CCCC1CN2CCc3cc4c(cc3C2CC1=O)OCO4 (stereo not shown) , which is 1420

---

# test.details: Inhibition of carrageenin-induced oedema
# Type: in vivo
# condition.description: in vivo; LD50/ED50; read-out: Therapeutical index LD50/ED50, carrageenin-oedema
readout.type: selectivity ratio
API note: the answer field is a bare number with no unit suffix.

Known results for compounds:
{"compound": "CCOc1cc2c(cc1OCC)C1CC(=O)C(CCC#N)CN1CC2 (stereo not shown) [SCT-3]", "selectivity ratio": 19.8}
{"compound": "COc1cc2c(cc1OC)C1CC(=O)C(CCC#N)CN1CC2 (stereo not shown) [SCT-1]", "selectivity ratio": 6.7}
{"compound": "COc1ccc2c(c1)c(CC(=O)O)c(C)n2C(=O)c1ccc(Cl)cc1 [Indomethacine, reference compound]", "selectivity ratio": 1.3}

We now examine a further compound.
Quick note, selectivity ratio for N#CCCC1CN2CCc3cc4c(cc3C2CC1=O)OCO4 (stereo not shown) [SC-118] landed at 22.6

---

# test.details: Acute toxicity tests
# Type: in vivo
# condition.description: rat, in vivo, po; rats, Litchfield-Wildoxon method
# Description: The acute toxicity values of the compounds were determined on rats, after oral administration. The LD50 values were calculated according to the Litchfield-Wildoxon method.
readout.type: LD50 (mg/kg)
API: value field is a number in mg/kg; no unit string.

Examples with their reported LD50 follow.
{"compound": "COc1cc2c(cc1OC)C1CC(=O)C(CCC#N)CN1CC2 (centres unmarked)", "result.units": "mg/kg", "LD50": 620}
{"compound": "N#CCCC1CN2CCc3cc4c(cc3C2CC1=O)OCO4 (centres unmarked)", "result.units": "mg/kg", "LD50": 1410}
{"compound": "CCCCC1C(=O)N(c2ccccc2)N(c2ccccc2)C1=O", "result.units": "mg/kg", "LD50": 1180}
{"compound": "CC(=O)Oc1ccccc1C(=O)O [Aspirin, reference compound]", "result.units": "mg/kg", "LD50": 1700}

# context switch: different compound, same LD50
Looking up CCOc1cc2c(cc1OCC)C1CC(=O)C(CCC#N)CN1CC2 (centres unmarked) , I found its LD50 recorded as 780

---

Ulcer for assorted molecules
# test.details: Determination of ulcer index
# condition.description: female

These recorded examples may help you get a feel for the data.
{"molecule": "COc1ccc2c(c1)c(CC(=O)O)c(C)n2C(=O)c1ccc(Cl)cc1 [Indomethacine, reference compound]", "readout.type": "Ulcer", "obs.value": "3/10"}
{"molecule": "O=C(O)c1ccccc1O [Na-salicylate, reference compound]", "readout.type": "Ulcer", "obs.value": "2/10"}
{"molecule": "COc1cc2c(cc1OC)C1CC(=O)C(CCC#N)CN1CC2 (centres unmarked)", "readout.type": "Ulcer", "obs.value": "2/10"}

GET /value?item= CCOc1cc2c(cc1OCC)C1CC(=O)C(CCC#N)CN1CC2 (centres unmarked) &field=Ulcer returns 0/10

The recorded Ulcer for entry N#CCCC1CN2CCc3cc4c(cc3C2CC1=O)OCO4 (centres unmarked) equals 0/10

---

# test.details: Determination of ulcer index
# condition.description: male
readout.type: Erosion

// field: Erosion; key: COc1ccc2c(c1)c(CC(=O)O)c(C)n2C(=O)c1ccc(Cl)cc1 [Indomethacine, reference compound] ; value = 1/10

Recorded result, CCOc1cc2c(cc1OCC)C1CC(=O)C(CCC#N)CN1CC2 (centres unmarked) , Erosion: 6/10

---

Inhibition of kaolin-induced oedema 2 hours after administration: recorded values
# System: kaolin-induced oedema
# test.details: Inhibition of kaolin-induced oedema
# Assay type: in vivo
# condition.description: 75 mg./kg. p.o., 2 hours
Express the reported value numerically, then name its unit.

Study these solved cases before continuing.
{"compound": "N#CCCC1CN2CCc3cc4c(cc3C2CC1=O)OCO4 (stereo not shown) [SC-118]", "obs.value": "43.7%"}
{"compound": "CCOc1cc2c(cc1OCC)C1CC(=O)C(CCC#N)CN1CC2 (stereo not shown) [SCT-3]", "obs.value": "48.9%"}
{"compound": "COC(=O)CCC1CN2CCc3cc(OC)c(OC)cc3C2CC1=O (stereo not shown) [SCT-2]", "obs.value": "24.7%"}

Value sought: Inhibition of kaolin-induced oedema 2 hours after administration, system kaolin-induced oedema, item COc1cc2c(cc1OC)C1CC(=O)C(CCC#N)CN1CC2 (stereo not shown) [SCT-1] . Result: 24.8%

---

Each entry below lists one item and its recorded selectivity ratio value.
# test.details: Inhibition of kaolin-induced oedema
# Assay type: in vivo
# condition.description: in vivo; LD50/ED50; read-out: Therapeutical index LD50/ED50, kaolin-oedema

Check out these entries, answers already filled in.
{"molecule": "COc1ccc2c(c1)c(CC(=O)O)c(C)n2C(=O)c1ccc(Cl)cc1 [Indomethacine, reference compound]", "selectivity ratio": 2.3}
{"molecule": "COc1cc2c(cc1OC)C1CC(=O)C(CCC#N)CN1CC2 (stereo not shown) [SCT-1]", "selectivity ratio": 12.4}
{"molecule": "N#CCCC1CN2CCc3cc4c(cc3C2CC1=O)OCO4 (stereo not shown) [SC-118]", "selectivity ratio": 29.2}

Now consider the entry below.
selectivity ratio in this record for CCOc1cc2c(cc1OCC)C1CC(=O)C(CCC#N)CN1CC2 (stereo not shown) [SCT-3] : 15

---

# Tested on: carrageenin-induced oedema
# test.details: Inhibition of carrageenin-induced oedema
# Format: in vivo
# condition.description: 50 mg./kg. p.o., 1.5 hours
readout.type: Inhibition of carrageenin-induced oedema 1.5 hours after administration (%)
Give the number; % is assumed, so skip it.

Below, each entry is followed by its recorded Inhibition of carrageenin-induced oedema 1.5 hours after administration result.
{"compound": "CCCCC1C(=O)N(c2ccccc2)N(c2ccccc2)C1=O", "obs.value": 24.3}
{"compound": "N#CCCC1CN2CCc3cc4c(cc3C2CC1=O)OCO4 (centres unmarked)", "obs.value": 30.6}
{"compound": "CCOc1cc2c(cc1OCC)C1CC(=O)C(CCC#N)CN1CC2 (centres unmarked)", "obs.value": 41.5}
{"compound": "COc1cc2c(cc1OC)C1CC(=O)C(CCC#N)CN1CC2 (centres unmarked)", "obs.value": 24.2}

API: the following record is the query input.
Reported Inhibition of carrageenin-induced oedema 1.5 hours after administration ( COC(=O)CCC1CN2CCc3cc(OC)c(OC)cc3C2CC1=O (centres unmarked) ) = 14.3

---

Catalogue of Ulcer readings, one per entry.
# test.details: Determination of ulcer index
# condition.description: male

Examples with answers:
{"compound": "COc1cc2c(cc1OC)C1CC(=O)C(CCC#N)CN1CC2 (centres unmarked)", "Ulcer": "1/10"}
{"compound": "CCOc1cc2c(cc1OCC)C1CC(=O)C(CCC#N)CN1CC2 (centres unmarked)", "Ulcer": "1/10"}
{"compound": "COc1ccc2c(c1)c(CC(=O)O)c(C)n2C(=O)c1ccc(Cl)cc1 [Indomethacine, reference compound]", "Ulcer": "3/10"}

Record O=C(O)c1ccccc1O [Na-salicylate, reference compound] . Reported Ulcer: 4/10

get_value(item= N#CCCC1CN2CCc3cc4c(cc3C2CC1=O)OCO4 (centres unmarked) , readout=Ulcer) returns 0/10

---

# Tested on: carrageenin-induced oedema
# test.details: Inhibition of carrageenin-induced oedema
# Type: in vivo
# condition.description: 100 mg./kg. p.o., 1.5 hours
# fulfilled = Inhibition of carrageenin-induced oedema 1.5 hours after administration below 50% (exclusive); not fulfilled = Inhibition of carrageenin-induced oedema 1.5 hours after administration at/above 50%

Some entries whose results are on file:
{"compound": "CCOc1cc2c(cc1OCC)C1CC(=O)C(CCC#N)CN1CC2 (centres unmarked) [SCT-3]", "answer.label": "not fulfilled"}
{"compound": "O=C(O)c1ccccc1O [Na-salicylate, reference compound]", "answer.label": "fulfilled"}

## Task Would you kindly verify if Inhibition of carrageenin-induced oedema 1.5 hours after administration of COC(=O)CCC1CN2CCc3cc(OC)c(OC)cc3C2CC1=O (centres unmarked) [SCT-2] is strictly less than 50%?
## Result fulfilled

## Task I wonder whether N#CCCC1CN2CCc3cc4c(cc3C2CC1=O)OCO4 (centres unmarked) [SC-118] has Inhibition of carrageenin-induced oedema 1.5 hours after administration below 50%. Can you tell?
## Result not fulfilled

## Task Below 50% on Inhibition of carrageenin-induced oedema 1.5 hours after administration? Entry COc1cc2c(cc1OC)C1CC(=O)C(CCC#N)CN1CC2 (centres unmarked) [SCT-1]
## Result fulfilled
